Test system: SR
assay details: NCI tumour cell line growth inhibition, 48 h
Activity calls are given as the source filed them. No stated cut-off is given here; in the data, active = GI50 up to about 1.1 µM and inactive = higher.
Possible outcomes: active, inactive

{"columns": ["compound", "label class"],
 "data": [
  ["CCCc1cn2c(/C=N/NC(=N)N)c(-c3ccc(Cl)c([N+](=O)[O-])c3)nc2s1", "inactive"],
  ["COc1cc2c(cc1OC)C(=O)N(c1ccc(OCCN3CCCC3)cc1)C2=O", "inactive"],
  ["CCCN1CC=C(c2cc(C(=O)OCC)[nH]c2-c2cc(C)no2)C1=O", "inactive"],
  ["COc1cc(C#CC(=O)OC/C=C/c2ccc3c(c2)OCO3)cc(OC)c1OC", "inactive"],
  ["CCC1C(c2cc(OC)c(OC)c(OC)c2)c2cc3c(cc2OC1N1CCOCC1)OCO3 (configuration not stated)", "inactive"],
  ["CN(C)CCNc1ccc([N+](=O)[O-])c2nc3ccccc3c(N)c12", "active"],
  ["CCOc1ccccc1Nc1nc(C)c(C(=O)CC(=O)C(=O)Nc2ccccc2)s1", "inactive"]
]}
